pKd: −log10 of the molar value.
Quick note: these are pKd numbers for system: Phenylalanine hydroxylase (PAH) protein (Homo sapiens, UniProt P00439)
Sequence (P00439 whole entry): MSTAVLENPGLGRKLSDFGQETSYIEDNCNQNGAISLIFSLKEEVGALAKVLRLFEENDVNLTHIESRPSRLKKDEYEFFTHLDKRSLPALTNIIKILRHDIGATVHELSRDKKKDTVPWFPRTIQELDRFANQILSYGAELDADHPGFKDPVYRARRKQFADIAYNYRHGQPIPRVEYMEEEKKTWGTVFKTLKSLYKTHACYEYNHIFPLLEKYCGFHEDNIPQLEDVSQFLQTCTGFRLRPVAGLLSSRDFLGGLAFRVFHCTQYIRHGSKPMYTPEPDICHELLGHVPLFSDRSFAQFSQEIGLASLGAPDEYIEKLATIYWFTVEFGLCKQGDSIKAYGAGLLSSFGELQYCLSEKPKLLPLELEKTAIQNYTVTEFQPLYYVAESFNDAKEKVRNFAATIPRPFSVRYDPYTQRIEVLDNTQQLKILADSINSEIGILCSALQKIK

# Compound, pKd
rows = [
    ("C[C@H]1CC[C@@]2(OC1)O[C@H]1C[C@H]3[C@@H]4CC[C@@H]5C[C@@H](O[C@@H]6O[C@H](CO)[C@H](O)[C@H](O)[C@H]6O[C@@H]6O[C@H](CO)[C@@H](O)[C@H](O)[C@H]6O)CC[C@]5(C)[C@H]4CC[C@]3(C)[C@H]1[C@@H]2C [Timosaponin A-III]", "> 5.00"),
    ("C[C@H](O)[C@H](O)[C@H]1CNc2nc(N)[nH]c(=O)c2N1 [BH4, tetrahydrobiopterin]", 4.97),
    ("CC(C)CCC1(O)O[C@H]2[C@H](O)[C@H]3[C@@H]4CC[C@@H]5C[C@@H](O[C@@H]6O[C@H](CO)[C@H](O)[C@H](O)[C@H]6O[C@@H]6O[C@H](CO)[C@@H](O)[C@H](O)[C@H]6O)CC[C@]5(C)[C@H]4CC[C@]3(C)[C@H]2[C@@H]1C (stereo partly shown) [Anemarrhenasaponin I]", "> 5.00"),
    ("C[C@@H](CC[C@@]1(O)O[C@H]2C[C@H]3[C@@H]4CC[C@@H]5C[C@@H](O[C@@H]6O[C@H](CO)[C@H](O)[C@H](O)[C@H]6O[C@@H]6O[C@H](CO)[C@@H](O)[C@H](O)[C@H]6O)CC[C@]5(C)[C@H]4CC[C@]3(C)[C@H]2[C@@H]1C)CO[C@@H]1O[C@H](CO)[C@@H](O)[C@H](O)[C@H]1O [Timosaponin B-II]", "> 5.00"),
]

Data credit: paper PMC12794274
